# maps each entry to its IC50
System: RS4;11(G101V) cancer cells
Assay: In vitro anti-proliferation assay in RS4;11 cell line with G101V mutation (ATPlite luminescence)
Type: cell-based
Settings: Homo sapiens, RS4-11, 72 h, about 72 hours incubation; medium supplemented with 5% FBS or 10% normal human serum
observationType: IC50

INSERT INTO results (molecule, observationtype, reported) VALUES
  ('COCC1(CO)C(=O)C2(F)CCN1CC2 (centres unmarked) [Example 9]', 'IC50', '> 5 µM'),
  ('CCC12CCN(CC1)[C@@](CO)(COC)C2=O (single isomer, unassigned) [Example 6(isomer 1)]', 'IC50', '< 5 µM'),
  ('COC[C@@]1(CO)C(=O)C2(C)CCN1CC2 (single isomer, unassigned) [Example 3 (isomer 1)]', 'IC50', '< 5 µM'),
  ('CC12CCN(CC1)C(CO)(CO)C2=O [Example 4]', 'IC50', '> 5 µM'),
  ('CC(C)OCC1(CO)C(=O)C2(C)CCN1CC2 (single isomer, unassigned) [Example 8(isomer 1)]', 'IC50', '< 5 µM'),
  ('CCC12CCN(CC1)[C@](CO)(COC)C2=O (single isomer, unassigned) [Example 6(isomer 2)]', 'IC50', '< 5 µM'),
  ('COCC1(CO)C(=O)C2(C)CCN1CC2 (centres unmarked) [Example 2]', 'IC50', '< 5 µM'),
  ('CCOC[C@]1(CO)C(=O)C2(C)CCN1CC2 (single isomer, unassigned) [Example 7(isomer 2)]', 'IC50', '< 5 µM');

###

# maps each entry to its IC50
Tested on: RS4;11(G101V) cancer cells
Test: In vitro anti-proliferation assay in RS4;11 cell line with G101V mutation (ATPlite luminescence)
Format: cell-based
Conditions: Homo sapiens, RS4-11, 72 h, about 72 hours incubation; medium supplemented with 5% FBS or 10% normal human serum
observationType: IC50

INSERT INTO assay_data (compound, reported) VALUES
  ('COCC1(CO)C(=O)C2(C(F)(F)F)CCN1CC2 (stereo not drawn) [Example 10]', '> 5 µM'),
  ('CCOC[C@@]1(CO)C(=O)C2(C)CCN1CC2 (single isomer, unassigned) [Example 7(isomer 1)]', '< 5 µM'),
  ('COCC1(CO)C(=O)C2(C(C)C)CCN1CC2 (stereo not drawn) [Example 5]', '< 5 µM');

Values from patent US20230089530A1
